- Tested on: NCI-H1792
- experiment-description: relative viability (nuclei count vs DMSO), 5 days (fraction); higher = more cells survive
- condition-parameters: first compound 500 µM
measurement-label: relative viability
Please reply with the number alone, leaving off any unit.

// solved cases for relative viability follow
Which measured relative viability value corresponds to O=C(O)CCCCC(CCSCc1ccccc1)SCc1ccccc1 (stereo unspecified) [CPI-613] + Nc1ncn([C@H]2C[C@H](O)[C@@H](CO)O2)c(=O)n1 [Decitabine] (partner 2 µM) ?
0.0627

Now try O=C(O)CCCCC(CCSCc1ccccc1)SCc1ccccc1 (stereo unspecified) [CPI-613] + C[C@@H](Oc1cc(-c2cnn(C3CCNCC3)c2)cnc1N)c1c(Cl)ccc(F)c1Cl [Crizotinib] (partner 1 µM) .
0.753

Now try O=C(O)CCCCC(CCSCc1ccccc1)SCc1ccccc1 (stereo unspecified) [CPI-613] + O=C(c1cc(Cc2n[nH]c(=O)c3ccccc23)ccc1F)N1CCN(C(=O)C2CC2)CC1 [Olaparib] (partner 8 µM) .
0.087

Now try O=C(O)CCCCC(CCSCc1ccccc1)SCc1ccccc1 (stereo unspecified) [CPI-613] + Cc1nc(Nc2ncc(C(=O)Nc3c(C)cccc3Cl)s2)cc(N2CCN(CCO)CC2)n1 [Dasatinib] (partner 0.075 µM) .
0.766

Now try O=C(O)CCCCC(CCSCc1ccccc1)SCc1ccccc1 (stereo unspecified) [CPI-613] + C[C@]1(O)C[C@@H](c2nc(-c3ccc4ccc(-c5ccccc5)nc4c3)c3c(N)nccn32)C1 [Linsitinib] (partner 1 µM) .
0.512

New cases:
Which measured relative viability value corresponds to O=C(O)CCCCC(CCSCc1ccccc1)SCc1ccccc1 (stereo unspecified) [CPI-613] + Cc1nc(NC(=O)N2CCC[C@H]2C(N)=O)sc1-c1ccnc(C(C)(C)C(F)(F)F)c1 [Alpelisib] (partner 2 µM) ?
0.709
